Target: Prothrombin (Homo sapiens) (UniProt P00734)
Test: Binding affinity for human Prothrombin as apparent association constant (Kass)
Measurement name: K ass

INSERT INTO results (molecule, measurement_name, measurement) VALUES
  ('c1ccc2c(Cc3ccc(O[C@@H]4CCC[C@H]4N4CCCC4)cc3)c(-c3ccc(OCCN4CCCC4)cc3)sc2c1', 'K ass', '2.74e+07 l M-1');

State its K ass for this molecule: CC(C)(COc1ccc(Cc2c(-c3ccc(OCCN4CCCC4)cc3)sc3ccccc23)cc1)N1CCCC1 4.69e+06 l M-1

Entry C(=C\c1ccc(Cc2c(-c3ccc(OCCN4CCCC4)cc3)sc3ccccc23)cc1)/CN1CCCC1 (stereo in doubt; cis) needs its K ass filled in; supply it. 9.8e+06 l M-1

Tell us which K ass value is on record for C[C@@H](COc1ccc(Cc2c(-c3ccc(OCCN4CCCC4)cc3)sc3ccccc23)cc1)N1CCCC1 9.07e+06 l M-1

Consider the molecule C[C@H](COc1ccc(Cc2c(-c3ccc(OCCN4CCCC4)cc3)sc3ccccc23)cc1)N1CCCC1 . State its measured K ass. 4.17e+06 l M-1

State its K ass: CC(COc1ccc(Cc2c(-c3ccc(OCCN4CCCC4)cc3)sc3ccccc23)cc1)N1CCCC1 (stereo not drawn) 7.34e+06 l M-1

Report K ass for C(#Cc1ccc(Cc2c(-c3ccc(OCCN4CCCC4)cc3)sc3ccccc23)cc1)CN1CCCC1 4.84e+06 l M-1

Tell me measured K ass for C(=C\c1ccc(Cc2c(-c3ccc(OCCN4CCCC4)cc3)sc3ccccc23)cc1)/CN1CCCC1 (stereo in doubt; trans) please. 1.32e+07 l M-1

---

Biological target: Prothrombin (Homo sapiens) (UniProt P00734)
Experiment: Binding affinity for human Prothrombin as apparent association constant (Kass)
Measurement name: K ass

Answered examples (3):
INSERT INTO measurements (molecule, measurement_name, measurement) VALUES
  ('CCC(CN1CCCC1)Oc1ccc(Cc2c(-c3ccc(OCCN4CCCC4)cc3)sc3ccccc23)cc1 (centres undefined)', 'K ass', '1.23e+07 l M-1'),
  ('c1ccc2c(Cc3ccc(CCCN4CCCC4)cc3)c(-c3ccc(OCCN4CCCC4)cc3)sc2c1', 'K ass', '6.7e+06 l M-1'),
  ('c1ccc2c(Cc3ccc(O[C@@H]4CCCC[C@H]4N4CCCC4)cc3)c(-c3ccc(OCCN4CCCC4)cc3)sc2c1', 'K ass', '2.4e+07 l M-1');

Quickly give me recorded K ass for CCC(COc1ccc(Cc2c(-c3ccc(OCCN4CCCC4)cc3)sc3ccccc23)cc1)N1CCCC1 (centres undefined) 2.81e+07 l M-1
